- ASSAYED_SYSTEM: human β2 adrenergic receptor (human, UniProt P07550 1-413)
- PROTOCOL_NOTES: cell-based or functional assay
Field: max Ca2+ signal, COS-7, FLIPR; agonist NE. Provide a value for each of the binders that follow.
Form entry: value (fluorescence units) — number only.

Looking up Human Gαq/s5 (other) MTLESIMACCLSEEAKEARRINDEIERQLRRDKRDARRELKLLLLGTGESGKSTFIKQMRIIHGSGYSDEDKRGFTKLVYQNIFTAMQAMIRAMDTLKIPYKYEHNKAHAQLVREVDVEKVSAFENPYVDAIKSLWNDPGIQECYDRRREYQLSDSTKYYLNDLDRVADPSYLPTQQDVLRVRVPTTGIIEYPFDLQSVIFRMVDVGGQRSERRKWIHCFENVTSIMFLVALSEYDQVLVESDNENRMEESKALFRTIITYPWFQNSSVILFLNKKDLLEEKIMYSHLVDYFPEYDGPQRDAQAAREFILKMFVDLNPDSDKIIYSHFTCATDTENIRFVFAAVKDTILQLNLKQYELL , I see its max Ca2+ signal, COS-7, FLIPR; agonist NE listed as 43

Looking up C. elegans Gαq/s21 (other) MACCLSEEAREQKRINQEIEKQLQRDKRNARRELKLLLLGTGESGKSTFIKQMRIIHGQGYSEEDKRAHIRLVYQNVFMAIQSMIRAMDTLDIKFGNESEELQEKAAVVREVDFESVTSFEEPYVSYIKELWEDSGIQECYDRRREYQLTDSAKYYLSDLRRLAVPDYLPTEQDILRVRVPTTGIIEYPFDLEQIIFRMVDVGGQRSERRKWIHCFENVTSIMFLVALSEYDQVLVECDNENRMEESKALFRTIITYPWFTNSSVILFLNKKDLLEEKILYSHLADYFPEYDGPPRDPIAAREFILKMFVDLNPDADKIIYSHFTCATDTENIRRVFNDCRDIIQRMHLRQYELL , I see its max Ca2+ signal, COS-7, FLIPR; agonist NE listed as 3510

Looking up Human Gαq/s9 (other) MTLESIMACCLSEEAKEARRINDEIERQLRRDKRDARRELKLLLLGTGESGKSTFIKQMRIIHGSGYSDEDKRGFTKLVYQNIFTAMQAMIRAMDTLKIPYKYEHNKAHAQLVREVDVEKVSAFENPYVDAIKSLWNDPGIQECYDRRREYQLSDSTKYYLNDLDRVADPSYLPTQQDVLRVRVPTTGIIEYPFDLQSVIFRMVDVGGQRSERRKWIHCFENVTSIMFLVALSEYDQVLVESDNENRMEESKALFRTIITYPWFQNSSVILFLNKKDLLEEKIMYSHLVDYFPEYDGPQRDAQAAREFILKMFVDLNPDSDKIIYSHFTCATDTENIRFVFAAVKDTILQMHLRQYELL , I see its max Ca2+ signal, COS-7, FLIPR; agonist NE listed as 1440
